# Assay conditions: 358.15 K; 101.33 kPa; Liquid
The entries below are paired with their reported mass density.
Measured property: mass density (kg/m3)

>>> value_observed("CCCCCCCC[n+]1cccc(C)c1")
1278.3
>>> value_observed("CCCC[n+]1cccc(C)c1.O=S(=O)([N-]S(=O)(=O)C(F)(F)F)C(F)(F)F")
1358.5
>>> value_observed("CCCCCC[n+]1ccccc1.O=S(=O)([N-]S(=O)(=O)C(F)(F)F)C(F)(F)F [1-hexylpyridinium bis(trifluromethylsulfonyl)imide]")
1340.9
>>> value_observed("CCCC[n+]1ccc(C)cc1.O=S(=O)([N-]S(=O)(=O)C(F)(F)F)C(F)(F)F")
1357.2
>>> value_observed("CCCC[n+]1ccccc1.O=S(=O)([N-]S(=O)(=O)C(F)(F)F)C(F)(F)F [1-butylpyridinium bis[(trifluoromethyl)sulfonyl]imide]")
1393.5
>>> value_observed("CCC[n+]1cccc(C)c1.O=S(=O)([N-]S(=O)(=O)C(F)(F)F)C(F)(F)F")
1392.1

----------
The entries below are paired with their reported mass density.
# Assay conditions: 313.15 K; 101.33 kPa; Liquid
Measured property: mass density (kg/m3)

>>> value_observed("CCC[n+]1cccc(C)c1.O=S(=O)([N-]S(=O)(=O)C(F)(F)F)C(F)(F)F")
1433.4
>>> value_observed("CCCC[n+]1cccc(C)c1.O=S(=O)([N-]S(=O)(=O)C(F)(F)F)C(F)(F)F")
1399
>>> value_observed("CCCC[n+]1ccccc1.O=S(=O)([N-]S(=O)(=O)C(F)(F)F)C(F)(F)F [1-butylpyridinium bis[(trifluoromethyl)sulfonyl]imide]")
1434.6
>>> value_observed("CCCCCC[n+]1ccccc1.O=S(=O)([N-]S(=O)(=O)C(F)(F)F)C(F)(F)F [1-hexylpyridinium bis(trifluromethylsulfonyl)imide]")
1380.7
>>> value_observed("CCCC[n+]1ccc(C)cc1.O=S(=O)([N-]S(=O)(=O)C(F)(F)F)C(F)(F)F")
1398.3
>>> value_observed("CCCCCCCC[n+]1cccc(C)c1")
1316.6

----------
The entries below are paired with their reported mass density.
# Assay conditions: 308.15 K; 101.33 kPa; Liquid
Measured property: mass density (kg/m3)

>>> value_observed("CCC[n+]1cccc(C)c1.O=S(=O)([N-]S(=O)(=O)C(F)(F)F)C(F)(F)F")
1438.1
>>> value_observed("CCCCCC[n+]1ccccc1.O=S(=O)([N-]S(=O)(=O)C(F)(F)F)C(F)(F)F [1-hexylpyridinium bis(trifluromethylsulfonyl)imide]")
1385.2
>>> value_observed("CCCCCCCC[n+]1cccc(C)c1")
1320.9
>>> value_observed("CCCC[n+]1ccc(C)cc1.O=S(=O)([N-]S(=O)(=O)C(F)(F)F)C(F)(F)F")
1402.9
>>> value_observed("CCCC[n+]1ccccc1.O=S(=O)([N-]S(=O)(=O)C(F)(F)F)C(F)(F)F [1-butylpyridinium bis[(trifluoromethyl)sulfonyl]imide]")
1439.3
>>> value_observed("CCCC[n+]1cccc(C)c1.O=S(=O)([N-]S(=O)(=O)C(F)(F)F)C(F)(F)F")
1403.6

----------
# Assay conditions: 293.15 K; 101.33 kPa; Liquid
Numbers after ± are expanded uncertainties.
Measured property: viscosity

>>> value_observed("CCCC[n+]1ccc(C)cc1.O=S(=O)([N-]S(=O)(=O)C(F)(F)F)C(F)(F)F")
"71.72 ± 1.5 mPa·s"
>>> value_observed("CCC[n+]1cccc(C)c1.O=S(=O)([N-]S(=O)(=O)C(F)(F)F)C(F)(F)F")
"69.11 ± 1.3 mPa·s"
>>> value_observed("CCCC[n+]1ccccc1.O=S(=O)([N-]S(=O)(=O)C(F)(F)F)C(F)(F)F [1-butylpyridinium bis[(trifluoromethyl)sulfonyl]imide]")
"77.72 ± 1.9 mPa·s"
>>> value_observed("CCCCCC[n+]1ccccc1.O=S(=O)([N-]S(=O)(=O)C(F)(F)F)C(F)(F)F [1-hexylpyridinium bis(trifluromethylsulfonyl)imide]")
"125.56 ± 6.3 mPa·s"
>>> value_observed("CCCCCCCC[n+]1cccc(C)c1")
"151.98 ± 9.2 mPa·s"
